Molecular target: Glutamate receptor 1 (Rattus norvegicus, UniProt P19490)
Sequence (P19490 whole entry): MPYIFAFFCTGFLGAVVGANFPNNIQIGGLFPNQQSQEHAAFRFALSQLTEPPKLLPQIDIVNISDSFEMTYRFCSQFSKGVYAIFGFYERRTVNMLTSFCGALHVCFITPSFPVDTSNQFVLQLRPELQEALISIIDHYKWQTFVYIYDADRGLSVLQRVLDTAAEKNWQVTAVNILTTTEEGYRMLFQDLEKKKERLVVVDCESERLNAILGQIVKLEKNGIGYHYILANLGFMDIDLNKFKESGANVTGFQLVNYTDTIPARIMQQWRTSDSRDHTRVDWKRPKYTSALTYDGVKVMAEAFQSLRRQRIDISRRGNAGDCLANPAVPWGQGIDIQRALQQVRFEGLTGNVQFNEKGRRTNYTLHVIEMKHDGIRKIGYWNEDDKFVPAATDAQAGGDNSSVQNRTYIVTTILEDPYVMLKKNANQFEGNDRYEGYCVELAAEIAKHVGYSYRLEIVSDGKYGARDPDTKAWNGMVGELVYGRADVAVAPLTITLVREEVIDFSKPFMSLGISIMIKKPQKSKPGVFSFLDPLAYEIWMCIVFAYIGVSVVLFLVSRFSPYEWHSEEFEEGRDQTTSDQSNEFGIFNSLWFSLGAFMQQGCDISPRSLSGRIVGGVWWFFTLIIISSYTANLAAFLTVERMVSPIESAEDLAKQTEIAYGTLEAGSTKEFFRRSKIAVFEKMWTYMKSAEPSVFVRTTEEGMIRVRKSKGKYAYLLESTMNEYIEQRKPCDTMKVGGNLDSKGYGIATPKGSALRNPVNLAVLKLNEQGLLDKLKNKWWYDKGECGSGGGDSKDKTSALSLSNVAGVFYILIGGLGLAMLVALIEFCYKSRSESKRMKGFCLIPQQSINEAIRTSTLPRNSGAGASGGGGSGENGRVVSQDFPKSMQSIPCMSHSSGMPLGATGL
Assay: Displacement of [3H[AMPA from rat recombinant GluA1o expressed in […] cells
MEASUREMENT_TYPE: Ki (nM)

compound="N[C@H](C(=O)O)c1cc(O)no1 [IBOTENIC ACID]" assay_target="Glutamate receptor 1 (Rattus norvegicus, UniProt P19490)" unit_info=nM result_operator=> number=100000
compound=O=C(O)[C@H]1Cc2c(O)noc2CN1 assay_target="Glutamate receptor 1 (Rattus norvegicus, UniProt P19490)" unit_info=nM result_operator== number=360
compound="O=C(O)C1NCCc2c1o[nH]c2=O (racemic)" assay_target="Glutamate receptor 1 (Rattus norvegicus, UniProt P19490)" unit_info=nM result_operator== number=180
compound="NC(Cc1onc(O)c1Cl)C(=O)O (racemic)" assay_target="Glutamate receptor 1 (Rattus norvegicus, UniProt P19490)" unit_info=nM result_operator== number=130

---

Biological target: Glutamate receptor 4 (Rattus norvegicus, UniProt P19493)
Sequence (P19493 whole entry): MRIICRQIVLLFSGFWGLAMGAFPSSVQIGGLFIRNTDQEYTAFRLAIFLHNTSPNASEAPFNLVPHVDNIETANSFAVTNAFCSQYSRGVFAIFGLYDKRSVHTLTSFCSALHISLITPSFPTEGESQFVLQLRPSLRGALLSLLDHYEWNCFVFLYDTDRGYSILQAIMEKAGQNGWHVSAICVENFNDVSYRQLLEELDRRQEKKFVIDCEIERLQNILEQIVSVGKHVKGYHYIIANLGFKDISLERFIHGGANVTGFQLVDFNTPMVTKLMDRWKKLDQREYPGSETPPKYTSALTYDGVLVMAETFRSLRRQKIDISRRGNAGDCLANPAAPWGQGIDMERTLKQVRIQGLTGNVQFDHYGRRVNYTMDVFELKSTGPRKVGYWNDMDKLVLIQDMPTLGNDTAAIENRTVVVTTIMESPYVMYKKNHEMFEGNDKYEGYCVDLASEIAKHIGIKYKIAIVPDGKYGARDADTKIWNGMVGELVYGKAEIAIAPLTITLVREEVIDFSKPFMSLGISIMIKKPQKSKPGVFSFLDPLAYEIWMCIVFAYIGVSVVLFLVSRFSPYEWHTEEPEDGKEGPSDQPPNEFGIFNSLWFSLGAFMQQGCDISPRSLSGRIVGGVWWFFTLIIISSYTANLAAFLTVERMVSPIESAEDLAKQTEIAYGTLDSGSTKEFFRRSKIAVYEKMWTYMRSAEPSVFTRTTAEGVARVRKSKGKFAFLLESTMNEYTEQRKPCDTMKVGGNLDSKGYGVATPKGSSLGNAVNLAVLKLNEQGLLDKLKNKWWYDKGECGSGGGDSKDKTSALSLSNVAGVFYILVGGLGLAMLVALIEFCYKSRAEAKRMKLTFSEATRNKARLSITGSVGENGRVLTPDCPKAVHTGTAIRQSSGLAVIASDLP
Experiment: Agonist activity at rat recombinant GluA4i expressed in Xenopus laevis oocytes by two-electrode voltage clamp assay
pEC50: −log10 of the molar value.
MEASUREMENT_TYPE: pEC50

compound="O=C(O)C1NCCc2c1o[nH]c2=O (racemic)" assay_target="Glutamate receptor 4 (Rattus norvegicus, UniProt P19493)" result="< 3.00"

---

Target: Glutamate receptor 4 (Rattus norvegicus)
Experiment: Displacement of [3H[AMPA from rat recombinant GluA4o expressed in […] cells
MEASUREMENT_TYPE: Ki (µM)

compound="NC(Cc1onc(O)c1Cl)C(=O)O (racemic)" result_operator== number=11.9
compound="O=C(O)C1NCCc2c1o[nH]c2=O (racemic)" result_operator== number=13.5
compound=O=C(O)[C@H]1Cc2c(O)noc2CN1 result_operator== number=0.64
compound=N[C@H](C(=O)O)c1cc(O)no1 result_operator=> number=100

---

pKi, Glutamate receptor 2 (Homo sapiens, UniProt P42262), per-entry values.
pKi: −log10 of the molar value.
MEASUREMENT_TYPE: pKi

compound="O=C(O)C1Cc2c(O)noc2CN1 (racemic)" measurement_type=pKi number=6.31
compound="O=C(O)C1NCCc2c1o[nH]c2=O (racemic)" measurement_type=pKi number=6.97

---

Target: Glutamate receptor ionotropic, kainate 3 (Rattus norvegicus, UniProt P42264)
Sequence (P42264 whole entry): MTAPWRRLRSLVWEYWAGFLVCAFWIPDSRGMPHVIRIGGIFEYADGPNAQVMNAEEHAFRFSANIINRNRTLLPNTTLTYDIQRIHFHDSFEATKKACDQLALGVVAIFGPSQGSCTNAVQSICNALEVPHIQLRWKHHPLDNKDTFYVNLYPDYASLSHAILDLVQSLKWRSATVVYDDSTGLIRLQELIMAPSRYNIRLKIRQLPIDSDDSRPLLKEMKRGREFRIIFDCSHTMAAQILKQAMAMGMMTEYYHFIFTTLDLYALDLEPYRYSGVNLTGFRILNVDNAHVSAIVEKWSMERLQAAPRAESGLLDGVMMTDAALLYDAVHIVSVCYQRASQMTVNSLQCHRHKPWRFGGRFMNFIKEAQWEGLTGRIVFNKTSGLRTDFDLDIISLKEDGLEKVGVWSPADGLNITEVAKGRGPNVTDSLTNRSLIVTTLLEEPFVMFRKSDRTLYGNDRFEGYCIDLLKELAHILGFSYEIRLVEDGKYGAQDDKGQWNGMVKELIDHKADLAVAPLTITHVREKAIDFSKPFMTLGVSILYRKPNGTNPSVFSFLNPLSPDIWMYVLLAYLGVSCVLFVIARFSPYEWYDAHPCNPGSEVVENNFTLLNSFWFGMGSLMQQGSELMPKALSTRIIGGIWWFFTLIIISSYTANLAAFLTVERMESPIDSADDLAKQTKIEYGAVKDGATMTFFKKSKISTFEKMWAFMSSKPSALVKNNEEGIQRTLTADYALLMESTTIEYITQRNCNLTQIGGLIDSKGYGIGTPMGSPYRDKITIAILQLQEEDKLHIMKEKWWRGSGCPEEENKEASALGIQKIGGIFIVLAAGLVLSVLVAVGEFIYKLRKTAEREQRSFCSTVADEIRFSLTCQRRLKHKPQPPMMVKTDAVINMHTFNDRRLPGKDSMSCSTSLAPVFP
Experiment: Displacement of [3H[SYM2081 from rat recombinant GluK3a expressed in […] cells
pKi: −log10 of the molar value.
A collection of compounds and their measured pKi
MEASUREMENT_TYPE: pKi

compound="Cc1onc(O)c1C[C@H](N)C(=O)O [(S)-AMPA]" number=4.37
compound="N[C@H](C(=O)O)c1cc(O)no1 [IBOTENIC ACID]" number=5.76
compound="NC(Cc1onc(O)c1Cl)C(=O)O (racemic)" number=4.04
compound="O=C(O)C1NCCc2c1o[nH]c2=O (racemic)" number=4.53
compound="O=C(O)C1Cc2c(O)noc2CN1 (racemic)" number=4.27

---

Target: UniProt P42260
Sequence (P42260 whole entry): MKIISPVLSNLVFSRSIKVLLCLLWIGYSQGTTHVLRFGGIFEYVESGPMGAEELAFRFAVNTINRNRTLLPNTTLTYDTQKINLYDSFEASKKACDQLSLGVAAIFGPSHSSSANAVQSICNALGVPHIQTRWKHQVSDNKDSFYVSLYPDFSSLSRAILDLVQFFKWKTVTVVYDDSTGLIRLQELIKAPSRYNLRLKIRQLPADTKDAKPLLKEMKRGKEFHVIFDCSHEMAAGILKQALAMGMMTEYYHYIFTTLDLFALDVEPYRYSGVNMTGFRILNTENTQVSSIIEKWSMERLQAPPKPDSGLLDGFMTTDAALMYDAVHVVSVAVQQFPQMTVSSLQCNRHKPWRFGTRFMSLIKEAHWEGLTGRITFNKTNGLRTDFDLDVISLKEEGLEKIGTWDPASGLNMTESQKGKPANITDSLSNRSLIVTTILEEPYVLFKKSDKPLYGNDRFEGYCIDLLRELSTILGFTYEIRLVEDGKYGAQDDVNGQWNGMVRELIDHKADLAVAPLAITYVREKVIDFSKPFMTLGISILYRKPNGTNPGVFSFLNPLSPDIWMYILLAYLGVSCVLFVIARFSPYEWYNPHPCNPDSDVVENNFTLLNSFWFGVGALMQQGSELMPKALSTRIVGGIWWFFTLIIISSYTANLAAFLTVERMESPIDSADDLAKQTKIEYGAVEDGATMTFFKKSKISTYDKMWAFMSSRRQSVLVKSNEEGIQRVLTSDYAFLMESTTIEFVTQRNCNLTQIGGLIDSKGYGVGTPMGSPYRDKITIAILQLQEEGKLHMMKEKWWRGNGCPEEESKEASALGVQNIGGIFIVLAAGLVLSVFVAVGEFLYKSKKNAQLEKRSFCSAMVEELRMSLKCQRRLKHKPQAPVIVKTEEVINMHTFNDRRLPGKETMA
Experiment: Displacement of [3H[SYM2081 from rat recombinant GluK2(VCR)a expressed in […] cells
MEASUREMENT_TYPE: Ki

compound=O=C(O)[C@H]1Cc2c(O)noc2CN1 measurement_type=Ki result="> 100 µM"
compound="Cc1onc(O)c1C[C@H](N)C(=O)O [(S)-AMPA]" measurement_type=Ki result="> 1000 µM"
compound="N[C@H](C(=O)O)c1cc(O)no1 [IBOTENIC ACID]" measurement_type=Ki result="3.23 µM"
compound="O=C(O)C1NCCc2c1o[nH]c2=O (racemic)" measurement_type=Ki result="> 100 µM"
compound="NC(Cc1onc(O)c1Cl)C(=O)O (racemic)" measurement_type=Ki result="> 100 µM"
